- Tested on: HepG2
- method: Antiproliferative activity against human HepG2 cells assessed as growth inhibition at 100 ug/mL incubated for 48 hrs by SRB assay relative to control
- Format: functional
- condition.notes: read-out: GI
Listing of entries alongside the reported inhibition of growth at 100 µg/mL.
parameter: inhibition of growth at 100 µg/mL (%)

- structure.notation: "COc1cc(/C=N/NC(=O)c2nnn(-c3ccc(F)cc3)c2C)cc(OC)c1OC"
  parameter: "inhibition of growth at 100 µg/mL"
  measured.result: 79
- structure.notation: "COc1cc(/C=N/NC(=O)c2nnn(-c3ccc(Cl)cc3)c2C)cc(OC)c1OC"
  parameter: "inhibition of growth at 100 µg/mL"
  measured.result: 43
- structure.notation: "COc1cccc(/C=N/NC(=O)c2nnn(-c3ccc(Br)cc3)c2C)c1OC"
  parameter: "inhibition of growth at 100 µg/mL"
  measured.result: 69

====

Listing of entries alongside the reported inhibition at 48 h, 100 ug/mL.
- method: Cytotoxicity against human oral epithelial cells (OEC) assessed as growth inhibition at 100 ug/mL incubated for 48 hrs by SRB assay relative to control
- Assay type: toxicity, cell-based, Oral epithelial cell
- condition.notes: at 100 µg/mL, read-out: GI
parameter: inhibition at 48 h, 100 ug/mL (%)

- molecule: "COc1cc(/C=N/NC(=O)c2nnn(-c3ccc(F)cc3)c2C)cc(OC)c1OC"
  parameter: "inhibition at 48 h, 100 ug/mL"
  measured.result: 32
- molecule: "COc1ccc(/C=N/NC(=O)c2nnn(-c3ccc(Br)cc3)c2C)cc1OC"
  parameter: "inhibition at 48 h, 100 ug/mL"
  measured.result: 28
- molecule: "COc1cccc(/C=N/NC(=O)c2nnn(-c3ccc(Br)cc3)c2C)c1OC"
  parameter: "inhibition at 48 h, 100 ug/mL"
  measured.result: 19
- molecule: "COc1cc(/C=N/NC(=O)c2nnn(-c3ccc([N+](=O)[O-])cc3)c2C)cc(OC)c1OC"
  parameter: "inhibition at 48 h, 100 ug/mL"
  measured.result: 39
- molecule: "Cc1c(C(=O)N/N=C/c2ccccc2)nnn1-c1ccc(F)cc1"
  parameter: "inhibition at 48 h, 100 ug/mL"
  measured.result: 16
- molecule: "COc1cccc(/C=N/NC(=O)c2nnn(-c3ccc(Cl)cc3)c2C)c1OC"
  parameter: "inhibition at 48 h, 100 ug/mL"
  measured.result: 37
- molecule: "COc1cc(/C=N/NC(=O)c2nnn(-c3ccc(Br)cc3)c2C)cc(OC)c1OC"
  parameter: "inhibition at 48 h, 100 ug/mL"
  measured.result: 52
- molecule: "COc1cc(/C=N/NC(=O)c2nnn(-c3ccc(Cl)cc3)c2C)cc(OC)c1OC"
  parameter: "inhibition at 48 h, 100 ug/mL"
  measured.result: 25
- molecule: "COc1cccc2c1C(=O)c1c(O)c3c(c(O)c1C2=O)C[C@@](O)(C(=O)CO)C[C@@H]3O[C@H]1C[C@H](N)[C@H](O)[C@H](C)O1 [DOXORUBICIN]"
  parameter: "inhibition at 48 h, 100 ug/mL"
  measured.result: 41

====

- method: Antiproliferative activity against human HNO 97 cell line assessed as growth inhibition at 100 ug/mL incubated for 48 hrs by SRB assay relative to control
- Assay type: functional
- condition.notes: read-out: GI
Lab note: compare inhibition of growth at 100 µg/mL against 70%. Equal or greater, write Condition met. Smaller, write Condition not met.

- structure.notation: "COc1cc(/C=N/NC(=O)c2nnn(-c3ccc(Cl)cc3)c2C)cc(OC)c1OC"
  group: "Condition met"
- structure.notation: "COc1cc(/C=N/NC(=O)c2nnn(-c3ccc(F)cc3)c2C)cc(OC)c1OC"
  group: "Condition met"
- structure.notation: "COc1cccc2c1C(=O)c1c(O)c3c(c(O)c1C2=O)C[C@@](O)(C(=O)CO)C[C@@H]3O[C@H]1C[C@H](N)[C@H](O)[C@H](C)O1"
  group: "Condition not met"
